Tested on: Mycolicibacterium smegmatis
Experiment notes: Antimycobacterial activity against Mycobacterium smegmatis by liquid microdilution method
Assay type: functional
Catalogue of MIC readings, one per entry.

Examples with answers:
CC[C@H](C)[C@@H](NC(=O)[C@@H](CCC(=O)O)NC(=O)[C@H](Cc1cnc[nH]1)NC(=O)[C@H](CC(C)C)NC(=O)[C@H](N)Cc1ccccc1)C(=O)N[C@H]1CCCNC1=O	> 50 µg/mL
CC[C@H](C)[C@@H](NC(=O)[C@@H](CCC(=O)O)NC(=O)[C@H](Cc1cnc[nH]1)NC(=O)[C@H](CC(C)C)NC(=O)[C@@H](Cc1ccccc1)NC(C)=O)C(=O)N[C@H]1CCCCNC1=O	> 50 µg/mL

The recorded MIC for entry CC[C@H](C)[C@@H](NC(=O)[C@@H](CCC(=O)O)NC(=O)[C@H](Cc1cnc[nH]1)NC(=O)[C@H](CC(C)C)NC(=O)[C@H](N)Cc1ccccc1)C(=O)NC1CCCCCC1 equals > 50 µg/mL
